Molecular target: thrombin (Bos taurus)
Assay: Chromogenic assay, thrombin inhibition (substrate S2238)
Assay type: biochemical
Conditions: in vitro; bovine thrombin; Ki calculated from substrate Km and IC50; pH 8.0, 30° C.
Where a name gives a salt, the structure may show the parent alone.
Quantity: Ki (nM)

1 = C[C@@H]1CCN(C(=O)[C@H](CC2=CCCN(C(=N)N)C2)NS(=O)(=O)c2ccc3c(c2)CN(C)CC3)[C@H](C(=O)O)C1 [Example 5, dihydrochloride]
2 = C[C@H]1CCN(C(=O)[C@H](CC2=CCCN(C(=N)N)C2)NS(=O)(=O)c2ccc3c(c2)CN(C)CC3)[C@@H](C(=O)O)C1 [Example 6, dihydrochloride]
Among 1 and 2 , which shows a numerically higher Ki result? Write the label of whichever entry you select. 2
